So I've got a bunch of compounds here, and I need their inhibition values.
test_system: L-lactate dehydrogenase (Plasmodium falciparum (isolate CDC / Honduras))
assay_explanation: PfLDH activity inhibition – cell lysate, 3D7 strain, counter-screen for P. falciparum growth inhibition project (AID 2304);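 note: 0% = vehicle and 100% = reference inhibitor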
condition_label: P. falciparum 3D7 crude extract, LDH APAD/NBT absorbance; at 2 µM; stronger effect = higher value
Activity calls are given as the source filed them. The rule behind the calls is not given here.

Form field inhibition, entry NC(N)=Nc1ccc(C(=O)O)c(O)c1 : -3% (inactive)

Form field inhibition, entry Cc1c(-c2cccc(C(C)(C)NC3CCN(Cc4ccccc4)CC3)c2)cnc(N)c1C : -6% (inactive)

Form field inhibition, entry Cc1ccc(Cc2c(C)nc3nc(N)nc(N)c3c2C)cc1 : 5% (inactive)

Form field inhibition, entry CC[C@H](C)CNC(=O)c1cccc(-c2cccc(CNCC3CNCCCO3)c2)n1 (stereo not given in full) : 1% (inactive)

Form field inhibition, entry Cc1cc(-c2ccc(NC(=O)N3CCc4cc(Cl)c(N5CCN(C)CC5)cc43)cc2)ccc1C#N : -2% (inactive)

----------
assay_explanation: inhibition of 3D7 malaria parasite growth – strain 3D7 (AID 2306);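 note: 0% = DMSO wells and 100% = chloroquine plus artemisinin control wells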
condition_label: P. falciparum 3D7 erythrocytic growth, LDH absorbance, 72 h; at 2 µM; stronger effect = higher value
value_type: growth inhibition (%)
// return numeric value only (unit: %, not printed)

Form field growth inhibition, entry CCCN=CNc1cc(-c2csc(N=C(N)N)n2)cc([N+](=O)[O-])c1 : 91

Form field growth inhibition, entry COc1ccc(CC(=O)Nc2ccc(Nc3nc(C)cc(N4CCCC4)n3)cc2)cc1 : 101

Form field growth inhibition, entry Nn1c(=O)oc2ccc(Cl)cc2c1=O : 97

Form field growth inhibition, entry CN(CCS(C)(=O)=O)Cc1ccc(-c2ccc3ncnc(Nc4ccc(OCc5cccc(F)c5)c(Cl)c4)c3c2)o1 : 101

Form field growth inhibition, entry Cc1cc(Nc2ncc3c(n2)N(C2CCC2)CC3)ccc1N1CCN(C)CC1 : 101

Form field growth inhibition, entry Oc1[nH]c2ccccc2c1N=NC(=S)N1CCOCC1 : 95

Form field growth inhibition, entry CC(=O)Nc1ccc(CN2CCC(NC(=O)c3ccc(-c4cccc(Cl)c4)s3)CC2)cc1 : 97

Form field growth inhibition, entry O=C(/C=C/c1ccc(Cl)c(Cl)c1)NCCCCCN1CCC(NC(=O)Nc2ccc(OC(F)F)cc2)CC1 : 101

Form field growth inhibition, entry COc1ccc2nc3cc(Cl)ccc3c(NCCc3ccccc3)c2c1 : 94

Form field growth inhibition, entry CC(=O)Nc1ccc(C(=O)Nc2cccc(-c3csc(-c4nc5ccccc5[nH]4)c3)c2)cn1 : 101

Form field growth inhibition, entry COc1ccc2nc(N(CCCn3ccnc3)C(=O)C=Cc3cccs3)sc2c1 : 92

Form field growth inhibition, entry CCCN(C(=O)c1ccccc1C)c1nnc(-c2cccc(C)c2)s1 : 91

Form field growth inhibition, entry CCN1CCN(c2cc(C)c3cc(NC(=O)c4cncc(Br)c4)ccc3n2)CC1 : 97

Form field growth inhibition, entry CC1(C)N=C(N)NC(Nc2ccc(F)c(F)c2)=N1 : 91

Form field growth inhibition, entry COc1ccc(CNc2ccnc(-n3cnc4cc(C)c(C)cc43)n2)cc1Cl : 100

Form field growth inhibition, entry C=CCc1cc(Br)ccc1OCCCON1C(N)=NC(N)=NC1(C)C : 95

Form field growth inhibition, entry NC(=O)Nc1ccc2cn[nH]c2c1 : 97

Form field growth inhibition, entry O=C(Nc1cccc(-c2ccc(-c3nc4ccc(C(F)(F)F)cc4[nH]3)s2)c1)c1cccnc1 : 101

Form field growth inhibition, entry COc1ccc2nccc(N3CCN(CCNCc4ccc5c(n4)NC(=O)CO5)CC3)c2c1 : 92

Form field growth inhibition, entry Cc1cc(N)c2cc(NC(=O)c3cccc4ccccc34)ccc2n1 : 98

Form field growth inhibition, entry COc1ccc2nccc([C@@H](O)CN3CCC(NCc4cc5ccc(Cl)cc5[nH]4)CC3)c2c1 : 99

Form field growth inhibition, entry O=C(Nc1ccccc1F)NC1CCN(c2ccnc(Nc3ccc(F)cc3)n2)CC1 : 99

Form field growth inhibition, entry Cc1nccc2c(NC(=O)N[C@@H]3CCN(c4ncc(C(F)(F)F)cc4Br)C3)cccc12 : 96

Form field growth inhibition, entry O=C(Nc1ccc(OC2CCN(Cc3ccc(F)cc3)C2)c(Cl)c1)c1ccccc1 (stereo not given) : 91

Form field growth inhibition, entry Cc1ccc(Oc2ccc(CNc3nc(Nc4cccc(F)c4)nc(Nc4cccc(F)c4)n3)cc2)cc1 : 86

Form field growth inhibition, entry COc1cc(C)cc(CN2CCC(Cc3ccccc3)CC2)c1O : 97

Form field growth inhibition, entry N#Cc1ccc(-c2ccc(OCC(O)CN3CCCN(C(=O)C(c4ccc5c(c4)OCO5)N4CCN(C/C=C/c5ccccc5)CC4)CC3)cc2)cc1 (stereo not given) : 99

Form field growth inhibition, entry Brc1cc2c(cc1C=NNc1nc(Nc3ccccc3)nc(Nc3ccccc3)n1)OCO2 : 100

Form field growth inhibition, entry Nc1cccc(CNCc2cccc(-c3csc(-c4nc5ccccc5[nH]4)c3)c2)c1 : 102

Form field growth inhibition, entry C=Cc1ccc(-c2c(C)[nH]c(C)c(Br)c2=O)cc1 : 98

Form field growth inhibition, entry CC(C)Oc1ccc(CCCON2C(N)=NC(N)=NC2(C)C)cc1 : 96

Form field growth inhibition, entry COc1ccc(S(=O)(=O)NCC2CCCN(CCCCCNC(=O)/C=C/c3ccc(Cl)c(Cl)c3)C2)cc1 (stereo not given) : 81

Form field growth inhibition, entry COc1ccc2nccc([C@@H](O)CN3CCC(NCCOc4ccccc4C#N)CC3)c2c1 : 101

Form field growth inhibition, entry NC(=O)c1cccc(Nc2nccc(Nc3ccc(Oc4cccc5ccccc45)cc3)n2)c1 : 94

Form field growth inhibition, entry NC1CCN(Cc2cccc(-c3ccc(-c4nc5ccccc5[nH]4)cc3)c2)C1 (stereo not given) : 100

Form field growth inhibition, entry COc1ccc(Br)cc1C1Nc2ccc3ccccc3c2C2=C1C(=O)CC(c1ccccc1)C2 (stereo not given) : 101

Form field growth inhibition, entry COc1ccc2nccc([C@@H](O)CN3CCC(NS(=O)(=O)c4cc5c(cc4Cl)SCC(=O)N5)CC3)c2c1 : 88

Form field growth inhibition, entry Cc1ccc2[nH]c(-c3ccc(C(=O)NC4CCN(Cc5ccccc5)CC4)cc3)nc2c1C : 102

Form field growth inhibition, entry c1ccc(CN2CCC(NCc3ccccc3-c3cccc(CNCc4ccc5c(c4)OCO5)c3)CC2)cc1 : 102

Form field growth inhibition, entry NC(=O)C1CCN(Cc2ccc(-c3ccc(-c4nc5ccc(C(F)(F)F)cc5[nH]4)cc3)cc2)CC1 : 100

----------
So I've got a bunch of compounds here, and I need their growth inhibition values.
assay_explanation: inhibition of 3D7 malaria parasite growth – strain 3D7 (AID 2306);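 note: 0% = DMSO wells and 100% = chloroquine plus artemisinin control wells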
condition_label: P. falciparum 3D7 erythrocytic growth, LDH absorbance, 72 h; at 2 µM; stronger effect = higher value
The source made the active and inactive calls. The rule behind the calls is not given here.

Form field growth inhibition, entry O=C(NC1CCCCC1)N(Cc1ccc(-c2cccc(CNCc3ccc4c(c3)OCO4)c2)cc1)C1CCN(Cc2ccccc2)CC1 : 101% (active)

Form field growth inhibition, entry CN(C)CCNC(=O)c1ccc2c(c1)ncn2-c1cc(OCc2ccccc2C(F)(F)F)c(C(N)=O)s1 (tested in a mixture with another compound) : 90% (active)

Form field growth inhibition, entry CCn1cc(C=C2Oc3c(ccc(O)c3CN3CCCCC3)C2=O)c2ccccc21 : 101% (active)

Form field growth inhibition, entry Cc1cc2nc(-c3ccc(C(=O)NCc4cccc(C(F)(F)F)c4)cc3)[nH]c2cc1C : 98% (active)

----------
assay_explanation: human hepatoma cell viability loss – ATP luminescence, cytotoxicity control for P. falciparum antimalarial project, primary screen (AID 2303);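 note: 0% = DMSO wells and 100% = digitonin-killed cells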
condition_label: HepG2 viability, 24-48 h, at 10 µM
Active and inactive are the calls of the source.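 How the source made its calls: active means inhibition above 50%; inactive means the rest.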
Choose the fitting class; nothing outside active, inactive is accepted.

Ask: Call for entry Cc1ccc(-n2[nH]c(C)c(N=Nc3cccc(-c4cccc(NC(=O)OC(C)(C)C)c4)c3O)c2=O)cc1C :
Result: inactive

Ask: Call for entry CC(C)(CNC(=O)[C@@H]1CCCN(CCOc2ccc(Cl)cc2)C1)c1nc(-c2ccc(Cl)c(O)c2)c(-c2ccncc2)[nH]1 :
Result: active

Ask: Call for entry CCN(CC)C(=O)c1cnc(-c2ccccc2)nc1Oc1cccc(Cl)c1 :
Result: inactive

Ask: Call for entry CCCc1cc(Cc2cnc(N)nc2N)cc(CCC)c1O :
Result: active

Ask: Call for entry CCCNCc1c(O)ccc2c(CNCCC)c(O)ccc12 :
Result: inactive

Ask: Call for entry O=[N+]([O-])c1cccc(CNCC2CCN(Cc3ccc(Cl)c(Cl)c3)CC2)c1 :
Result: inactive

Ask: Call for entry CN1c2ccc([N+](=O)[O-])cc2C(C)(C)C12C=Cc1cc(Br)cc([N+](=O)[O-])c1O2 (centres undefined) :
Result: inactive

Ask: Call for entry COc1ccccc1N1CCN(C(C(=O)NCc2ccc3c(c2)OCO3)c2ccc(C)cc2)CC1 (centres undefined) :
Result: inactive

Ask: Call for entry N#Cc1ccc(CN2CCCN(c3ccc(NC(=O)c4ccc(F)cc4)cc3)CC2)cc1 :
Result: inactive
